System: Escherichia coli TOP10
assay: shrunken log2 fold change of peptide-encoding DNA abundance (4.5 h post-induction vs induction); higher = less antimicrobial activity (less host growth inhibition)
condition: time post-induction: 4.5 h; library: site-saturation at positions 5, 18, 19, 20
In this section, each of the sequences is paired with its reported shrunken log2 fold change.
API doc: respond with a numeric literal and nothing else, no unit.

Some solved cases for reference:
Inquiry: Item `RRIRTRPPRLPRPRPRPNNLPRP` : provide shrunken log2 fold change
Reply text: -0.252

Inquiry: Look up and state reported shrunken log2 fold change for `RRIRWRPPRLPRPRPRPSAGPRP`
Reply text: 0.231

Inquiry: Input `RRIRMRPPRLPRPRPRPWYHPRP` , output reported shrunken log2 fold change.
Reply text: -0.00277

Inquiry: Input `RRIRGRPPRLPRPRPRPTGTPRP` , output reported shrunken log2 fold change.
Reply text: 0.517

Inquiry: Quote shrunken log2 fold change reported for `RRIRCRPPRLPRPRPRPKVYPRP` please.
Reply text: -0.167

***
Inquiry: Give me measured shrunken log2 fold change, please, for this sequence: `RRIRRRPPRLPRPRPRPWTHPRP`
Reply text: 0.0267

Inquiry: Tell me measured shrunken log2 fold change for `RRIRCRPPRLPRPRPRPMNVPRP` please.
Reply text: -0.00117

Inquiry: For the sequence `RRIRFRPPRLPRPRPRPCCRPRP` , give its measured shrunken log2 fold change value.
Reply text: -0.332

###

Tested on: Escherichia coli TOP10
assay: shrunken log2 fold change of peptide-encoding DNA abundance (4.5 h post-induction vs induction); higher = less antimicrobial activity (less host growth inhibition)
condition: time post-induction: 4.5 h; library: site-saturation at positions 5, 18, 19, 20
shrunken log2 fold change below 0.01 gives No; shrunken log2 fold change at or above it gives Yes.

Inquiry: Item `RRIRNRPPRLPRPRPRPFEPPRP` with shrunken log2 fold change of 0.01 or above?
Reply text: No

Inquiry: Does `RRIRTRPPRLPRPRPRPFPPPRP` have a reported shrunken log2 fold change of at least 0.01?
Reply text: No

Inquiry: Record `RRIRFRPPRLPRPRPRPYENPRP` ; criterion: shrunken log2 fold change no lower than 0.01. Met?
Reply text: No

Inquiry: Exam item: decide whether the reported shrunken log2 fold change for `RRIRSRPPRLPRPRPRPYIQPRP` is at least 0.01.
Reply text: No

Continuing:
Inquiry: API: above_or_equal(metric=shrunken log2 fold change, cutoff=0.01) for item `RRIRFRPPRLPRPRPRPDPQPRP`
Reply text: Yes

Inquiry: Confirm if shrunken log2 fold change reported for the sequence `RRIRQRPPRLPRPRPRPKQAPRP` is 0.01 or above.
Reply text: Yes

Inquiry: hey, is shrunken log2 fold change for this one >= 0.01? `RRIRRRPPRLPRPRPRPHVHPRP`
Reply text: Yes

Inquiry: Form field: shrunken log2 fold change at least 0.01? Entry: `RRIRYRPPRLPRPRPRPRTSPRP`
Reply text: No

Inquiry: For this sequence, is measured shrunken log2 fold change 0.01 or higher? `RRIRGRPPRLPRPRPRPQVEPRP`
Reply text: No

Inquiry: Could you tell me if the measured shrunken log2 fold change of `RRIRPRPPRLPRPRPRPKSSPRP` reaches 0.01 or more?
Reply text: No

Inquiry: I'd appreciate it if you could say whether `RRIRWRPPRLPRPRPRPPIEPRP` has shrunken log2 fold change at least equal to 0.01.
Reply text: Yes

Inquiry: State whether the measured shrunken log2 fold change reaches 0.01, counting equality as reaching it, for `RRIRGRPPRLPRPRPRPHDEPRP`
Reply text: Yes

Inquiry: Does shrunken log2 fold change meet or surpass 0.01 for `RRIRRRPPRLPRPRPRPDQHPRP` ?
Reply text: Yes

Inquiry: Does the sequence `RRIRQRPPRLPRPRPRPEAVPRP` have recorded shrunken log2 fold change that is 0.01 or more?
Reply text: Yes

Inquiry: Dear colleague, could you confirm whether `RRIRWRPPRLPRPRPRPYQTPRP` has shrunken log2 fold change at or above 0.01?
Reply text: No

###

Tested on: Escherichia coli TOP10
assay: shrunken log2 fold change of peptide-encoding DNA abundance (4.5 h post-induction vs induction); higher = less antimicrobial activity (less host growth inhibition)
condition: time post-induction: 4.5 h; library: site-saturation at positions 5, 18, 19, 20
# shrunken log2 fold change per record follows
Lab note: record the figure alone, no unit after it.

Consider the worked cases shown below.
Inquiry: Identify shrunken log2 fold change associated with the sequence `RRIRDRPPRLPRPRPRPYTIPRP`
Reply text: -0.0747

Inquiry: Respond only with shrunken log2 fold change recorded for `RRIRNRPPRLPRPRPRPMENPRP`
Reply text: -0.0164

Inquiry: Identify shrunken log2 fold change associated with the sequence `RRIRYRPPRLPRPRPRPFEKPRP`
Reply text: 0.021

Inquiry: Please look at this sequence and report its shrunken log2 fold change: `RRIRRRPPRLPRPRPRPYMNPRP`
Reply text: -0.621

Inquiry: Quote shrunken log2 fold change reported for `RRIRQRPPRLPRPRPRPQGPPRP` please.
Reply text: 0.189

Inquiry: Identify measured shrunken log2 fold change associated with `RRIRQRPPRLPRPRPRPTCKPRP`
Reply text: 0.0706

New cases:
Inquiry: Find the measured shrunken log2 fold change of `RRIRFRPPRLPRPRPRPCAAPRP` and report it.
Reply text: 0.35

Inquiry: Input `RRIRFRPPRLPRPRPRPPWIPRP` , output reported shrunken log2 fold change.
Reply text: 0.3

Inquiry: Determine its reported shrunken log2 fold change: `RRIRYRPPRLPRPRPRPVIWPRP`
Reply text: -0.262

Inquiry: Return shrunken log2 fold change (reported value) for this sequence: `RRIRGRPPRLPRPRPRPSHKPRP`
Reply text: -0.157

Inquiry: Specify reported shrunken log2 fold change for the sequence shown: `RRIRLRPPRLPRPRPRPMTVPRP`
Reply text: -0.108

###

Test system: Escherichia coli TOP10;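 also: peptides expressed intracellularly from a pBAD plasmid library in pooled LB shake-flask culture, induced with 0.3% L-arabinose, DNA abundance read by NGS, three biological replicates, DESeq2 with apeglm shrinkage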
assay: shrunken log2 fold change of peptide-encoding DNA abundance (4.5 h post-induction vs induction); higher = less antimicrobial activity (less host growth inhibition)
condition: time post-induction: 4.5 h; library: site-saturation at positions 5, 18, 19, 20
endpoint: shrunken log2 fold change
Write the value as a bare number.

Sample answers from the record:
Inquiry: Report measured shrunken log2 fold change; entry is `RRIRPRPPRLPRPRPRPLLEPRP`
Reply text: 0.059

Inquiry: Give the reported shrunken log2 fold change for this sequence. `RRIRDRPPRLPRPRPRPTESPRP`
Reply text: -0.00177

Inquiry: Let me know recorded shrunken log2 fold change for `RRIRGRPPRLPRPRPRPFTAPRP` , thanks.
Reply text: 0.272

Inquiry: Using the record for `RRIRERPPRLPRPRPRPQVKPRP` , state its measured shrunken log2 fold change.
Reply text: -0.2

Inquiry: Complete the entry with shrunken log2 fold change for `RRIRGRPPRLPRPRPRPDDHPRP`
Reply text: 0.18

Inquiry: Give the reported shrunken log2 fold change for this sequence. `RRIRPRPPRLPRPRPRPAWWPRP`
Reply text: 0.259

***
Inquiry: Supply recorded shrunken log2 fold change for `RRIRLRPPRLPRPRPRPSGYPRP` here.
Reply text: -0.152

Inquiry: Give the measured shrunken log2 fold change for `RRIRSRPPRLPRPRPRPDQDPRP`
Reply text: 0.142

Inquiry: Please give measured shrunken log2 fold change of the following entry: `RRIRGRPPRLPRPRPRPAENPRP`
Reply text: 0.996

Inquiry: Check the records and state shrunken log2 fold change for `RRIRCRPPRLPRPRPRPGAFPRP`
Reply text: 0.138

Inquiry: Give shrunken log2 fold change for `RRIRRRPPRLPRPRPRPMTQPRP`
Reply text: 0.176

Inquiry: Name the recorded shrunken log2 fold change of the sequence listed here: `RRIRPRPPRLPRPRPRPRTNPRP`
Reply text: -0.0218

Inquiry: Please supply the value of reported shrunken log2 fold change for the item `RRIRVRPPRLPRPRPRPRIWPRP`
Reply text: 0.468

Inquiry: Identify measured shrunken log2 fold change associated with `RRIRARPPRLPRPRPRPMHIPRP`
Reply text: -0.132

Inquiry: Give the measured shrunken log2 fold change for `RRIRYRPPRLPRPRPRPPHPPRP`
Reply text: -0.187

Inquiry: Please look at this sequence and report its shrunken log2 fold change: `RRIRERPPRLPRPRPRPLTKPRP`
Reply text: -0.0153

Inquiry: Tell me measured shrunken log2 fold change for `RRIRTRPPRLPRPRPRPEAWPRP` please.
Reply text: 0.178

Inquiry: Read the entry `RRIRGRPPRLPRPRPRPVFHPRP` and write its reported shrunken log2 fold change.
Reply text: 0.0913

Inquiry: For the sequence `RRIRWRPPRLPRPRPRPNYHPRP` , give its measured shrunken log2 fold change value.
Reply text: -0.486

Inquiry: Retrieve shrunken log2 fold change measured for `RRIRPRPPRLPRPRPRPIMYPRP` and print it.
Reply text: -0.175

Inquiry: Quickly give me recorded shrunken log2 fold change for `RRIRKRPPRLPRPRPRPDRYPRP`
Reply text: -0.0261

Inquiry: Fill in shrunken log2 fold change for record `RRIRHRPPRLPRPRPRPMNPPRP`
Reply text: -0.379

Inquiry: Please look at this sequence and report its shrunken log2 fold change: `RRIRGRPPRLPRPRPRPGVKPRP`
Reply text: 0.588

Inquiry: Report measured shrunken log2 fold change; entry is `RRIRRRPPRLPRPRPRPDAWPRP`
Reply text: 0.325
